Target: Bet v 1m (Betula pendula)
Construct: made in house
Sequence (P43186 whole entry): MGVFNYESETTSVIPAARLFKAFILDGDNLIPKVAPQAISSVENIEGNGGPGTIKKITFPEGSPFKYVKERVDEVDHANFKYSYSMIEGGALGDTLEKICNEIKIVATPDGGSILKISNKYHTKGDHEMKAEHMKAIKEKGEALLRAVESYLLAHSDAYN
Test: UV/VIS equilibrium titration of flavonoids with Bet v 1m
Type: binding, Betula verrucosa
readout-label: pKd
To interpret pKd, take it as minus log10 of a concentration measured in moles per litre.

Worked cases, answers included:
INSERT INTO measurements (entry_smiles, readout_label, result_number) VALUES
  ('O=C1C[C@@H](c2ccc(O)cc2)Oc2cc(O)cc(O)c21', 'pKd', 4.55),
  ('O=c1c(O)c(-c2ccc(O)c(O)c2)oc2cc(O)ccc12', 'pKd', 4.16);

Read the next record carefully.
The reported pKd of the molecule `O=c1c(O)c(-c2ccc(O)c(O)c2)oc2cc(O)cc(O)c12` was 4.58

###

Target: Bet v 1a (Betula pendula, UniProt P15494)
Construct: made in house
Sequence (P15494 whole entry): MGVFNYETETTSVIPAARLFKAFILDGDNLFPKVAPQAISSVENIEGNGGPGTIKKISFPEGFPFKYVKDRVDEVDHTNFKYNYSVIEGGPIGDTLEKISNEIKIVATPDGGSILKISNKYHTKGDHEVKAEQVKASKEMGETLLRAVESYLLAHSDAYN
Test: 1H-15N HSQC NMR titration (chemical shift perturbation) of 15N-Bet v 1a
Format: binding, Betula verrucosa
Settings: NMR, Bet v 1a; average of all analysable residues with CSPs > 0.08 ppm, ± standard deviation; read-out: Dissociation constant Kd (averaged Kd app)
Each entry below carries its reported Kd.

INSERT INTO assay_data (molecule, readout_label, result) VALUES
  ('O=c1c(O[C@@H]2O[C@H](CO)[C@@H](O)[C@H](O)[C@H]2O[C@@H]2O[C@H](CO)[C@@H](O)[C@H](O)[C@H]2O)c(-c2ccc(O)c(O)c2)oc2cc(O)cc(O)c12 [Q3OS, quercetin-3-O-sophoroside]', 'Kd', '< 1 µM');

Note: attention shifts to another entry.
get_value(item= O=c1c(O[C@@H]2O[C@H](CO)[C@H](O)[C@H](O)[C@H]2O)c(-c2ccc(O)c(O)c2)oc2cc(O)cc(O)c12 [Q3OGal, quercetin-3-O-galactoside] , readout=Kd) returns < 5 µM

###

Experiment: UV/VIS absorption spectra of unbound flavonoids
Type: physicochemical
Conditions: pH 7.0
Experimental: All flavonoids and Bet v 1 isoforms were dissolved in 50 mM sodium phosphate, 50 mM NaCl, 10% (v/v) DMSO, pH 7.0, to a final concentration of 10 to 20 μM in 500 μl. Absorption spectra from 200–800 nm were recorded at 25°C in a 1 cm quartz cuvette (Hellma GmbH) using a 8453 UV-visible spectrophotometer (Agilent).
readout-label: Absorption maxima, Flavonoid (nm)
Please reply with the bare figure in nm and do not write the unit itself.

Before answering, review these 7 worked examples.
INSERT INTO assay_data (compound, readout_label, result_number) VALUES
  ('O=c1c(O)c(-c2ccc(O)c(O)c2)oc2cc(O)ccc12', 'Absorption maxima, Flavonoid', 368),
  ('O=c1c(O[C@@H]2O[C@H](CO)[C@@H](O)[C@H](O)[C@H]2O)c(-c2ccc(O)c(O)c2)oc2cc(O)cc(O)c12 [Q3OGlc, quercetin-3-O-glucoside]', 'Absorption maxima, Flavonoid', 364),
  ('O=c1c(O[C@@H]2O[C@H](CO)[C@@H](O)[C@H](O)[C@H]2O[C@@H]2O[C@H](CO)[C@@H](O)[C@H](O)[C@H]2O)c(-c2ccc(O)c(O)c2)oc2cc(O)cc(O)c12 [Q3OS, quercetin-3-O-sophoroside]', 'Absorption maxima, Flavonoid', 358),
  ('O=c1c(O)c(-c2ccc(O)c(O)c2)oc2cc(O)cc(O)c12', 'Absorption maxima, Flavonoid', 377),
  ('O=c1c(O)c(-c2cc(O)c(O)c(O)c2)oc2cc(O)cc(O)c12', 'Absorption maxima, Flavonoid', 378),
  ('O=C1C[C@@H](c2ccc(O)cc2)Oc2cc(O)cc(O)c21', 'Absorption maxima, Flavonoid', 325),
  ('O=c1cc(-c2ccccc2)oc2ccccc12', 'Absorption maxima, Flavonoid', 302);

Consider O=c1c(O[C@@H]2O[C@H](CO)[C@H](O)[C@H](O)[C@H]2O)c(-c2ccc(O)c(O)c2)oc2cc(O)cc(O)c12 [Q3OGal, quercetin-3-O-galactoside] . Its measured Absorption maxima, Flavonoid is 358
